- assay.protocol: FRG1 promoter luciferase signal modulators, primary screen, FRG1 inhibition for FSHD, cell-based, C2C12 myotubes, firefly/Renilla luciferase, luminescence (AID 1084)
- test.conditions: higher = more signal, called active from +8 up or from −8 down
Record TRUE whenever z-score is at 0.07 or higher; record FALSE when lower.

CCOC(=O)[C@H](CC(C)C)NC(=O)CCC1CC(OC(=O)NCCc2ccc(F)cc2)CC2(CCCC(COC(=O)NCc3ccccc3)O2)O1 (stereo partly specified)
TRUE
O=C1[C@H]2[C@H]3[C@H](O)[C@H](O)CC(=NOCc4ccccc4)[C@H]3CC[C@H]2C(=O)N1c1ccc(F)cc1F
TRUE
O=C1[C@H]2[C@H]3[C@H](O)[C@H](O)CC(=NOC[C@@H](O)COCc4ccco4)[C@H]3CC[C@H]2C(=O)N1c1cccc(Oc2ccccc2)c1
FALSE
O=C1[C@H]2[C@H]3[C@H](O)[C@H](O)CC(=NOCc4ccccc4)[C@@H]3CC[C@H]2C(=O)N1C1CCCCC1
TRUE
CC1CC/C=C\[C@H]2OC34C=CCN(Cn5nnc6ccccc65)C(=O)[C@H]3N(CCO)C(=O)[C@@H]4C2C(=O)O1 (stereo partly specified)
FALSE
CCOC(=O)CCN1C(=O)[C@H]2[C@H]3[C@H](O)[C@H](O)CC(=NNC(=O)OCc4ccc(OC)cc4)[C@@H]3CC[C@H]2C1=O
TRUE
CCOC(=O)CCN1C(=O)[C@H]2[C@H]3[C@H](O)[C@H](O)CC(=O)[C@H]3CC[C@H]2C1=O
TRUE
CC(C)[C@H](NC(=O)OC(C)(C)C)[C@@H](O)CC(=O)OC(C)(C)C
FALSE
COCCOC(=O)N1C(=O)[C@@]2(c3ccccc31)[C@H](C(N)=O)[C@H]1C(=O)O[C@H](c3ccccc3)[C@H](c3ccccc3)N1[C@@H]2c1ccccc1OCCO
FALSE
N#Cc1ccc(NN2C(C(O)c3cc(C(F)(F)F)cc(C(F)(F)F)c3)C=CC3C(=O)N(c4ccccc4)C(=O)C32)cc1 (stereo unspecified)
TRUE
CCOC(=O)C1=CC[C@H]2C(=O)N(CC)C(=O)[C@@H]12
TRUE
CCOC(=O)[C@H](Cc1ccccc1)NC(=O)CCC1CC(OC(=O)NCc2ccc3c(c2)OCO3)CC2(CCCC(COC(=O)NCc3cccc(C(F)(F)F)c3)O2)O1 (stereo partly specified)
FALSE
CO[C@@H]1COC(=O)CCC[C@@H](C)[C@H](OC)COC(=O)CCC[C@H]1C
TRUE
Cc1ccc(F)cc1S(=O)(=O)N[C@@H]1CCN(Cc2ccc(CC(C)C)cc2)C1
FALSE
CC(C)(C)OC(=O)CC[C@]1(C(N)=O)COC(c2ccc(OCCCO)cc2)=N1
TRUE
CC[C@@H](c1ccccc1)n1c(=O)n2n(c1=O)[C@H]1[C@H](O)[C@@H]3O[C@@H]3C(=NOCC=C(C)CCC=C(C)C)[C@H]1CC2
FALSE
COC(=O)[C@H](C)NC(=O)[C@@H](C)CO
FALSE
COC(=O)CC=C[C@@H](C)[C@@H](C=NO[C@H](C)c1cn([C@@H]2COC[C@H]2O)nn1)OC
FALSE
C=C(COC)/C(=C/C[C@H](OC(=O)c1ccncc1)c1ccc(CO)o1)c1cc(C(=O)OC)ccc1OC
FALSE
CCCNC(=O)[C@@H]1c2ccccc2C(=O)N(c2ccc(C)cn2)[C@H]1c1ccc(CO)cc1
TRUE
CC(C)NC(=O)[C@@]1(C)c2ccccc2C(=O)N(Cc2cc(F)cc(C(F)(F)F)c2)[C@H]1c1ccc(CO)cc1
FALSE
O=C1[C@H]2[C@H]3[C@H](O)[C@H](O)CC(=NO[C@@H]4O[C@H](CO)[C@@H](O)[C@H](O)[C@H]4O)[C@@H]3CC[C@H]2C(=O)N1Cc1ccccc1
FALSE
CC(C)c1ccc(NN2C(C(O)c3ccc4c(c3)OCO4)C=CC3C(=O)N(c4ccccc4)C(=O)C32)cc1 (stereo unspecified)
TRUE
COC(=O)[C@@H]1CC[C@H](C)[C@@H](c2ccc(C)cc2)N1C(=O)c1ccc(C=NOC[C@@H](O)COCc2ccco2)cc1
TRUE
C=C(/C(=C/C[C@H](OC(C)=O)c1ccc(OCCO)cc1)c1cnc2ccccc2c1)C(C)C
TRUE
COc1ccc(COC(=O)NN=C2C[C@@H](O)[C@@H](O)[C@@H]3[C@@H]4C(=O)N(c5ccc(F)cc5F)C(=O)[C@@H]4CC[C@@H]23)cc1
FALSE
CCCC[C@@H]1C[C@H]1[C@@H](NS(=O)(=O)c1cccc2cccnc12)c1ccc(-c2ccccc2)cc1
TRUE
COC(=O)[C@@]1(Cc2ccc(F)cc2)[C@@H]2C(=CC(=O)[C@H]2CC(=O)C(=O)N(C)C)CN1C(=O)c1ccccc1
FALSE
O=C1c2ccccc2[C@@]2(Cc3ccccc3N(C3CC3)C2=O)[C@H](c2ccc(CO)cc2)N1Cc1ccccc1C(F)(F)F
FALSE
CCc1cc2c(nc1CC)CCN(CCC(C)=NO[C@@H](C)c1cc(-c3c(C)cc(C)cc3C)no1)C2
FALSE
COC(=O)CC=C[C@@H](C)[C@@H](C=NO[C@@H](C)c1cc(-c2c(C)cc(C)cc2C)no1)OC
TRUE
